Hey, just so you know, these numbers are from the supplement of paper PMC6555819.

tested on: PPARg:RXRa 90nM:30nM, anti-RXR (NR concentration 90 nM, RXRa partner concentration 30 nM); experiment: PBM binding z-score (relative to random genomic background probes); higher = stronger binding; sequences stand for … in GC…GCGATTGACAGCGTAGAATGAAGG
ASSAY METRIC: PBM binding z-score
Write the number on its own, no unit after it.

Problem: Can you share its PBM binding z-score? I mean this sequence: CCTATTGGGCCAAAGGTCATTGATTCCAATGCTC
Result: 12.1

Problem: Now try AGTCAAAGTTCATCTAGGTAACTTAAGATATGCT .
Result: 5.64

Problem: Now try GCGACTGGGGCAAAGCAGGTTATCATAAGGTTGG .
Result: 0.229

Problem: Now try CCTTACGGGTCACTCCAGGTTACAGCATCGGAGT .
Result: 2.64

Problem: Now try TTACCAAGGTGAAAGGACGTTGATGCACGCCTTG .
Result: 3.14

Problem: Now try TAGCCTAGATCATTGGGCCAGTATAGTACGCATC .
Result: -0.125

Problem: Now try ACTAGCAGGCCAAGTTTGGGTCACTCACACAAAG .
Result: -0.0603

Problem: Now try CGTCAAAGTTGAAGGTAACGTAACAGAAAGCAGC .
Result: 0.76

Problem: Now try TCATACAGGTAAAAGGTGAAAGTCGGTGTGGTAA .
Result: 7.08

Problem: Now try TGAATGAGGTTATGAGATCAGGGAACGTTGCAAA .
Result: 1.31

Problem: Now try CCGCCTGGGGCAAGGTTACCATAACGCACAGCCA .
Result: 0.253

Problem: Now try CGAACTGGGTCATTGACAGGACAGTGAATAGTAA .
Result: 5.44

Problem: Now try ATACCAAGGTGAGCGTGAGGTCGTTGATACTAAC .
Result: 0.391

Problem: Now try GGAACGAGGACAAGTTGATAGCAGAGTTTGATGG .
Result: -0.0367

Problem: Now try CTCGAAAGGTCGGTTGATGTGAGTATACGGATAA .
Result: 0.223

Problem: Now try TCGAGAAGGTTAGGGGCATTCAGAATGGCGTCGA .
Result: 1.43

Problem: Now try ACAGACAGGTGATGAAGGGAACTCAGGCTATCAT .
Result: -0.027

Problem: Now try GGAACGAGGCCAAAGTTGATAGCATCTGTCGACG .
Result: 6.31

Problem: Now try TCTGCTAGGTTAGTTGGTCAGCTAACGAGCTGCC .
Result: 0.973

Problem: Now try ACTATTAGTTGACTTGGGGCAACCGATACGACGC .
Result: 0.389

Problem: Now try TCTATTAGTTGATTAGGGCAGCCGAAACAGCGGA .
Result: 2.93

Problem: Now try GCGACTTGGGCATCAGCAGGTTACCATAACTTAA .
Result: -0.893

Problem: Now try CCTGCTAGGTCCATGGTCAGCTAAAGCAGCTCGC .
Result: -0.648

Problem: Now try CTACCAAGGTGAACAAGGGCGTTGATTACTATTC .
Result: 0.624

Problem: Now try AGAACGAGGGCAAGCTGAGTTGATAGCAGAGTAG .
Result: 0.484

Problem: Now try CAAACTAGGTTAAAGGTCAAAGTCGAGCCAACCA .
Result: 13.4

Problem: Now try ACTAGCAGGCCAAGGGTCACTCTAGATTAGTCCG .
Result: 7.97

Problem: Now try CCTGCTAGGTCATGGTCAGCTCATCTACAGTATG .
Result: 1.72

Problem: Now try GCTGCTAGGCCAACTGATGGTCAGCTAAAGCTCG .
Result: -1.14

Problem: Now try CCAACGAGGGCATGAGTTGATAGCAAATGCCGAT .
Result: 0.242

Problem: Now try TCATATAGGCAAACAGGTGAAAGTCCGTAAGTTA .
Result: 2.91

Problem: Now try ACTATTAGTTGAGACGAAGGCAACCGATAGGTTG .
Result: -0.372

Problem: Now try ACTATTAGTTGACTTAGGACAACCGATACGACGC .
Result: 0.273

Problem: Now try GCTAGTTGGTCAGTAAAAGGTCACACCCCGGTCG .
Result: 3.78

Problem: Now try CCTACTGGGCCACCAGGTCATTGATATCAACGTT .
Result: 3.26

Problem: Now try GCTCGGAGGACAAGGTCAGAGATTTGTCCGTAGA .
Result: 0.587

Problem: Now try CTCGAAAGGTCGTTCTCAGGTGAGTATACCAAAC .
Result: 2.29

Problem: Now try TCTAGCAGGCCCGAGGGTCACTCAAGAGGTACGG .
Result: 1.42

Problem: Now try TCTTGTAAATCAATAGAGGTTAAGAAAGTGCGCT .
Result: 2.44

Problem: Now try GCTTGTAGATCATGGTTAAGAAAGACTAAGCTAA .
Result: -0.187

Problem: Now try ACAGTCAGGTGATGAAGGTAACTCAGGCTATCAT .
Result: -0.0221

Problem: Now try TAGCCTAGGTCAGATCGGGCCAGTAGACGCTATA .
Result: 0.224

Problem: Now try ACAGACAGGTTATGAAGGTAACTCAGGCTATCAT .
Result: 0.403

Problem: Now try TCTTGTAGATCAAGCAGGTTAAGAACGCCTGAGT .
Result: 1.7

Problem: Now try ATCTCTAGGTAAAGATAGTTCTGTGAATGCAAAT .
Result: 0.389

Problem: Now try TCATATAGGTAAGTGCTAGGTGAAAGTCCGATCT .
Result: 2.49

Problem: Now try AGAACGAGGGCAATAAGTTGATAGCACGGGTGGC .
Result: 0.217

Problem: Now try CTCGAAAGGTCGTGCTCAGGTGAGTAGACCAAAC .
Result: 2.88

Problem: Now try TCGAGTTGGTTAGTCGGGGCATTCAGCCAACATA .
Result: 0.81

Problem: Now try TCGATTAGTTGAAGGGCAACCGACGAGTCCGTTT .
Result: 1.85

Problem: Now try ACTGACAGGTGAGTGAAGGTAACTCAGCTGGACG .
Result: -0.0738
